- Assayed Target: T1, murine TpoR ectodomain, monomeric (TpoR_(1-479)) (mouse, UniProt Q08351 26-479, N-linked glycans at N117, N178, N349; tryptophan mannosylation (W465, W468))
- T1 chain: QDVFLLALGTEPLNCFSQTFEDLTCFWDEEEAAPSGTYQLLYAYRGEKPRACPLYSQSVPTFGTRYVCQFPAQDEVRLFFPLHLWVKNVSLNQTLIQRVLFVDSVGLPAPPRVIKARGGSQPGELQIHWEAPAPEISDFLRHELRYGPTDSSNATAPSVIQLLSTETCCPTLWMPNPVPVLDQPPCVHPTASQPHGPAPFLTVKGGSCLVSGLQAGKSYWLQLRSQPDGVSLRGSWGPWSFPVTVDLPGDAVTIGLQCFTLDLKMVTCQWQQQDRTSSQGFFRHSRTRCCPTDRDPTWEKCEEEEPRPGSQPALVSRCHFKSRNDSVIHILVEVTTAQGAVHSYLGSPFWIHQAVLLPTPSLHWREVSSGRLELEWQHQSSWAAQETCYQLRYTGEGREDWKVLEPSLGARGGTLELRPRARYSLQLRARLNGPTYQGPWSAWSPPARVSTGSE
- Method Notes: SPR; TpoR over immobilised romiplostim peptide
No end group written: not given here. *: point of attachment. Biotin = O=C1N[C@H]2[C@H](CS[C@H]2CCCCC(=O)*)N1
Quantity Name: Kd (nM)

Biotin-IEGPTLRQWLAARAGGIEGPTLRQWLAARA (two copies of the TpoR agonist peptide joined by GG; Not the Fc fusion drug itself; The biotin is stated for the peptides coupled to streptavidin chips; also called romiplostim peptide; dimeric romiplostim peptide; source: synthetic peptide) [peptide version of romiplostim (two copies of IEGPTLRQWLAARA connected by a GG linker)]    71
